Recorded Binding 5-HT-1A déplacement (%) for the following compounds
Biological target: récepteurs 5-HT 1A (Homo sapiens, UniProt P08908)
Sequence (P08908 whole entry): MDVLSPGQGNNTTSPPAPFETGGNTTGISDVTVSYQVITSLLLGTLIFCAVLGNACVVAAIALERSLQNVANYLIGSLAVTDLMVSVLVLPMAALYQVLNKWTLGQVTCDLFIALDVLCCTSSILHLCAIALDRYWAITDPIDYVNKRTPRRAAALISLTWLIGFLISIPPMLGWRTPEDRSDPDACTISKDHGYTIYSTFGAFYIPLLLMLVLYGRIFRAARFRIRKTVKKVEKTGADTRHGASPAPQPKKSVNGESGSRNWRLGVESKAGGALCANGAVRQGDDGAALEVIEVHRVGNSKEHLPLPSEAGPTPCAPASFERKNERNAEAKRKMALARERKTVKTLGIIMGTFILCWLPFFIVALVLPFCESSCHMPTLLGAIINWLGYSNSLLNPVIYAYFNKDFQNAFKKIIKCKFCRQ
Assay: 5-HT 1A receptor binding (radioligand displacement)
Conditions: specific binding to 5-HT 1A receptors; test concentration not given; method cited from M. Hapon, Brain Receptor Methodologies
Excerpt: L'activité de certains composés sur le système nerveux central a été étudiée et plus précisément leur activité sérotoninergique, par leur union spécifique aux récepteurs 5-HT 1A. TABLEAU II

[
  {
    "COMPOUND": "CCCCn1ccnc1C(OCCCCN1CCN(c2ncccn2)CC1)c1cccc(C(F)(F)F)c1 (centres unmarked) [Exemple 6]",
    "Binding 5-HT-1A déplacement (%)": "94,6%"
  },
  {
    "COMPOUND": "Cn1nccc1C(OCCCCN1CCN(c2ncccn2)CC1)c1ccc(Cl)cc1 (centres unmarked) [Exemple 8]",
    "Binding 5-HT-1A déplacement (%)": "95,0%"
  },
  {
    "COMPOUND": "Cn1ccnc1C(OCCCCN1CCN(c2ncccn2)CC1)c1cccc(C(F)(F)F)c1 (centres unmarked) [Exemple 7]",
    "Binding 5-HT-1A déplacement (%)": "98,3%"
  },
  {
    "COMPOUND": "O=C1c2ccccc2S(=O)(=O)N1CCCCN1CCN(c2ncccn2)CC1 [Ipsapirone, reference compound]",
    "Binding 5-HT-1A déplacement (%)": "99,6%"
  },
  {
    "COMPOUND": "CCCCn1ccnc1C(OCCCCN1CCN(c2ncccn2)CC1)c1ccc(Cl)cc1 (centres unmarked) [Exemple 5]",
    "Binding 5-HT-1A déplacement (%)": "91,5%"
  },
  {
    "COMPOUND": "O=C1CC2(CCCC2)CC(=O)N1CCCCN1CCN(c2ncccn2)CC1 [Buspirone, reference compound]",
    "Binding 5-HT-1A déplacement (%)": "99,1%"
  },
  {
    "COMPOUND": "Cn1ccnc1C(C)(OCCCCN1CCN(c2ncccn2)CC1)c1ccc(Cl)cc1 (centres unmarked) [Exemple 2]",
    "Binding 5-HT-1A déplacement (%)": "98,6%"
  }
]

Now look at this one.
Q: Form field: Binding 5-HT-1A déplacement (%) recorded for Cn1ccnc1C(OCCCCN1CCN(c2ncccn2)CC1)c1ccc(Cl)cc1 (centres unmarked) [Exemple 1] with récepteurs 5-HT 1A (Homo sapiens, UniProt P08908) (enter value)
Result: 94,7%

###

Biological target: récepteurs 5-HT 1A (Homo sapiens, UniProt P08908)
Experiment: 5-HT 1A receptor binding (radioligand displacement)
Conditions: specific binding to 5-HT 1A receptors; test concentration not given; method cited from M. Hapon, Brain Receptor Methodologies
Text: L'activité de certains composés sur le système nerveux central a été étudiée et plus précisément leur activité sérotoninergique, par leur union spécifique aux récepteurs 5-HT 1A. TABLEAU II
QUANTITY: Binding 5-HT-1A déplacement (%)

As a guide, the following entries are already answered.
[
  {
    "COMPOUND": "Cn1ccnc1C(C)(OCCCCN1CCN(c2ncccn2)CC1)c1cccc(C(F)(F)F)c1 (stereo not drawn) [Exemple 4]",
    "Binding 5-HT-1A déplacement (%)": "98,1%"
  },
  {
    "COMPOUND": "CCCCn1ccnc1C(C)(OCCCCN1CCN(c2ncccn2)CC1)c1cccc(C(F)(F)F)c1 (stereo not drawn) [Exemple 3]",
    "Binding 5-HT-1A déplacement (%)": "97,6%"
  }
]

Q: Need Binding 5-HT-1A déplacement (%) of Cn1nccc1C(C)(OCCCCN1CCN(c2ncccn2)CC1)c1ccc(Cl)cc1 (stereo not drawn) [Exemple 9] , thanks.
Result: 95,0%
